Data origin, for the record: ChEMBL document CHEMBL4265871

Below is a list of entries, each paired with its recorded selectivity ratio value.
test: Selectivity index, ratio of EC50 for toxicity in human BEAS2B cells to MIC50 for antifungal activity against ITC and FLC-susceptible Candida albicans ATCC MYA-2876; type: cell-based; conditions: BEAS-2B cells, read-out: Selectivity Index
Number only, no unit.

Please fill in: selectivity ratio reported for CCCCC(O)(Cn1cncn1)c1ccc(Cl)cc1Cl (stereo unspecified) [HEXACONAZOLE] = 16

Please fill in: selectivity ratio reported for CCCCC(O)(Cn1cncn1)c1ccc(F)cc1F (stereo unspecified) = 5

Please fill in: selectivity ratio reported for CCCC(O)(Cn1cncn1)c1ccc(Cl)cc1Cl (stereo unspecified) = 16

Please fill in: selectivity ratio reported for CCCCCC(O)(Cn1cncn1)c1ccccc1F (stereo unspecified) = 32

Please fill in: selectivity ratio reported for CCCCCCC(O)(Cn1cncn1)c1ccc(F)cc1F (stereo unspecified) = 16

Please fill in: selectivity ratio reported for CCCCCCC(O)(Cn1cncn1)c1ccc(Cl)cc1Cl (stereo unspecified) = 29

* * *

test: Selectivity index, ratio of […] for toxicity in human A549 cells to MIC50 for antifungal activity against Aspergillus terreus ATCC MYA-3633; format: cell-based; settings: read-out: Selectivity Index
Below is a list of entries, each paired with its recorded selectivity ratio value.
Number only, no unit.

Examples with their reported selectivity ratio follow.
>  <COMPOUND>
CCCCC(O)(Cn1cncn1)c1ccc(F)cc1F (stereo unspecified)

>  <selectivity ratio>
2

$$$$
>  <COMPOUND>
CCCCCCC(O)(Cn1cncn1)c1ccccc1F (stereo unspecified)

>  <selectivity ratio>
8

$$$$
>  <COMPOUND>
CCCCCC(O)(Cn1cncn1)c1ccccc1F (stereo unspecified)

>  <selectivity ratio>
9

$$$$
>  <COMPOUND>
CCCCC(O)(Cn1cncn1)c1ccc(Cl)cc1Cl (stereo unspecified)

>  <selectivity ratio>
32

$$$$
>  <COMPOUND>
CCCCCC(O)(Cn1cncn1)c1ccccc1Cl (stereo unspecified)

>  <selectivity ratio>
2

$$$$
>  <COMPOUND>
CCCCCCC(O)(Cn1cncn1)c1ccc(Cl)cc1 (stereo unspecified)

>  <selectivity ratio>
2

$$$$

Please fill in: selectivity ratio reported for CCCCCC(O)(Cn1cncn1)c1ccc(Cl)cc1Cl (stereo unspecified) = 8

Please fill in: selectivity ratio reported for CCCCCC(O)(Cn1cncn1)c1ccc(F)cc1F (stereo unspecified) = 1

Please fill in: selectivity ratio reported for CCCCCCC(O)(Cn1cncn1)c1ccc(F)cc1F (stereo unspecified) = 4

Please fill in: selectivity ratio reported for CCCCCCCCC(O)(Cn1cncn1)c1ccc(F)cc1F (stereo unspecified) = 2

Please fill in: selectivity ratio reported for CCCCCCC(O)(Cn1cncn1)c1ccc(Cl)cc1Cl (stereo unspecified) = 5

Please fill in: selectivity ratio reported for CCCCCC(O)(Cn1cncn1)c1ccc(F)cc1 (stereo unspecified) = 1

Please fill in: selectivity ratio reported for CCCC(O)(Cn1cncn1)c1ccc(Cl)cc1Cl (stereo unspecified) = 8

Please fill in: selectivity ratio reported for CCCCCCC(O)(Cn1cncn1)c1ccccc1Cl (stereo unspecified) = 65

Please fill in: selectivity ratio reported for CCCCCC(O)(Cn1cncn1)c1ccc(Cl)cc1 (stereo unspecified) = 1

Please fill in: selectivity ratio reported for CCCCCCC(O)(Cn1cncn1)c1ccc(F)cc1 (stereo unspecified) = 2

* * *

Below is a list of entries, each paired with its recorded MIC50 value.
system: Candida albicans; assay: Antifungal activity against ITC and FLC-resistant Candida albicans ATCC MYA-90819 incubated for 48 hrs by modified CLSI M27-A3 protocol based method; assay type: functional; settings: ATCC MYA-90819, 48 h
Respond numerically; units are µM and should not be typed.

>  <COMPOUND>
CCCCC(O)(Cn1cncn1)c1ccc(Cl)cc1Cl (centres undefined) [HEXACONAZOLE]

>  <TARGET_OR_TEST_SYSTEM>
Candida albicans

>  <REPORTED_RESULT>
6.2

$$$$
>  <COMPOUND>
C[C@@H](c1ncncc1F)[C@](O)(Cn1cncn1)c1ccc(F)cc1F [VORICONAZOLE]

>  <TARGET_OR_TEST_SYSTEM>
Candida albicans

>  <REPORTED_RESULT>
5.6

$$$$

Please fill in: MIC50 reported for CC(O)(Cn1cncn1)c1ccc(Cl)cc1Cl (centres undefined) = 7.2

Please fill in: MIC50 reported for CC[C@@H]([C@H](C)O)n1ncn(-c2ccc(N3CCN(c4ccc(OC[C@@H]5CO[C@@](Cn6cncn6)(c6ccc(F)cc6F)C5)cc4)CC3)cc2)c1=O [POSACONAZOLE] = 44.7
